- target.under.test: Glycogen [starch] synthase, liver (Homo sapiens)
- Sequence (P54840 whole entry): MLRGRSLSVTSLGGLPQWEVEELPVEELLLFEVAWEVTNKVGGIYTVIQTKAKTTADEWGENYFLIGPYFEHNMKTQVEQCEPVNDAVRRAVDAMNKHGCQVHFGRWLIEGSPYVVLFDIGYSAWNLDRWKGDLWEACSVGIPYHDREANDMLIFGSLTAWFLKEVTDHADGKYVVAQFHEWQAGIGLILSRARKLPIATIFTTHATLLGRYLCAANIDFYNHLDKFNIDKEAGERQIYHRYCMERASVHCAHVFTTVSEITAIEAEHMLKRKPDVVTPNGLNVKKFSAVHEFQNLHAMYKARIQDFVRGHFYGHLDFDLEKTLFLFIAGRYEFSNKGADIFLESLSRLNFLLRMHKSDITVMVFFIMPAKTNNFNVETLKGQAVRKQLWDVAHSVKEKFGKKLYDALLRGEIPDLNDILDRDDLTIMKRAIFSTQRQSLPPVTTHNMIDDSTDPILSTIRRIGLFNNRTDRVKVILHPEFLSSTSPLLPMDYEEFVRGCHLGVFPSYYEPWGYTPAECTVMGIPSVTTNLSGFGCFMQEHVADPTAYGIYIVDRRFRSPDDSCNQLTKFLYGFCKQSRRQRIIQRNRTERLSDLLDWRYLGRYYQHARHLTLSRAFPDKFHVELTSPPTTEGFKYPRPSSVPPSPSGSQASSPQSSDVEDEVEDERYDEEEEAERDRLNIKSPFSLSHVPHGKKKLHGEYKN
- assay.notes: Activation of insulin-stimulated glycogen synthase in human HepG2 cells using [U-14C]UDP glucose as substrate preincubated for 18 hrs followed by insulin stimulation and measured after 15 mins by beta-counting method
reported.property: EC50 (µM)
Give the quantity in µM, number only.

Sample COc1cc(/C=C/C(=O)O[C@H]2[C@H](OC(C)=O)C[C@]3(C)[C@H]4CC=C5[C@H]6[C@](C(=O)O)(CC[C@@H](C)[C@@]6(C)O)CC[C@@]5(C)[C@]4(C)CC[C@H]3C2(C)C)ccc1O ; EC50 observed: 4.1
